assaySystem: SLC1A2 (Homo sapiens, UniProt P43004)
Sequence (P43004 whole entry): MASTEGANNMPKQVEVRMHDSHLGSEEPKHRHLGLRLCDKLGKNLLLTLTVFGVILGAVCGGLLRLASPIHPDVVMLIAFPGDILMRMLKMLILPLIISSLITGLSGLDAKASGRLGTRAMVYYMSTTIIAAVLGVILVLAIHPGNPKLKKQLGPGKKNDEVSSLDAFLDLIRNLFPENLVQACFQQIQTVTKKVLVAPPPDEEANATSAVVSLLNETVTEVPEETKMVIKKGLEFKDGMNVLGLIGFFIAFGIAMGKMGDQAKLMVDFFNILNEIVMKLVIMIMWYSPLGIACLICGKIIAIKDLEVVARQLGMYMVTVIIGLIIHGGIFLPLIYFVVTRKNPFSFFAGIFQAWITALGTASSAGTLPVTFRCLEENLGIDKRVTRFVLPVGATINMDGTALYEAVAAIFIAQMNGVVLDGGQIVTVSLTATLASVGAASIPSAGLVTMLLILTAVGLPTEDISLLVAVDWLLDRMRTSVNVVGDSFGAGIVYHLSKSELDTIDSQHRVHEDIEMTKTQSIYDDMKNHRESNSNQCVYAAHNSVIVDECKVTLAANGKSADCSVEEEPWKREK
procedureSummary: Echo-MS assay, uptake of labeled glutamic acid in dox-induced HEK293–JumpIn–SLC1A2 (EAAT2) cells
Type: cell-based
Set-up: expressed in transfected cells; host or cells: Jump In T-REx HEK293
details: target SLC1A2, assay EchoMS; read-out: pIC50 (act) (converted)
endpointName: IC50

Example entries begin here.
# molecule, dataValue
measured = [
    ("Fc1ccc(C(OCCN2CCN(CCCc3ccccc3)CC2)c2ccc(F)cc2)cc1", "19.7 µM"),
    ("CC1C(C#N)=C(N)OC2=C1C(=O)CC(c1cccc3ccccc13)C2 (centres unmarked)", "> 30 µM"),
    ("COc1ccc(C2C(C#N)=C(N)OC3=C2C(=O)CC(c2cccc4ccccc24)C3)cc1 (centres unmarked)", "> 30 µM"),
    ("O=S(=O)(O)c1cc(N=C=S)ccc1/C=C/c1ccc(N=C=S)cc1S(=O)(=O)O", "> 30 µM"),
    ("Cc1c(NC(=O)c2cc(C(N)=O)nc3cc(F)ccc23)c(C(F)(F)F)nn1Cc1ccc(C#N)cc1", "> 30 µM"),
    ("CNCCCN1c2ccccc2CCc2ccccc21", "> 30 µM"),
    ("CN1C2CCC1CC(OC(c1ccccc1)c1ccccc1)C2 (centres unmarked)", "> 30 µM"),
    ("Nc1nc2ccc(OC(F)(F)F)cc2s1", "> 30 µM"),
]

Incoming: For the molecule shown here, CCNC(=O)/C=C/c1cccc(Br)c1 [Cinromide] , give the reported IC50.
Outgoing: > 30 µM

Incoming: For the molecule shown here, NC(C(=O)O)C(OCc1ccccc1)C(=O)O (centres unmarked) , give the reported IC50.
Outgoing: 8.6 µM

Incoming: For the molecule shown here, COCCOc1cc(CC2CCN(CCc3ccc4c(c3)C(=O)CCO4)CC2)ccc1Br , give the reported IC50.
Outgoing: 11.7 µM

Incoming: For the molecule shown here, N[C@@H](CC(=O)Nc1ccc(Oc2cc(F)c(F)cc2Br)cc1)C(=O)O , give the reported IC50.
Outgoing: 0.26 µM

Incoming: For the molecule shown here, CC(C)[C@H]1CN[C@H](C(=O)O)[C@H]1CC(=O)O [Dihydrokainate] , give the reported IC50.
Outgoing: > 30 µM

Incoming: For the molecule shown here, N#Cc1ccc(Nc2cnccc2SCc2ccccc2C(=O)O)c2ccccc12 , give the reported IC50.
Outgoing: > 30 µM

Incoming: For the molecule shown here, Cc1ccsc1C(=CCCN1CCC[C@@H](C(=O)O)C1)c1sccc1C , give the reported IC50.
Outgoing: > 30 µM

Incoming: For the molecule shown here, CCOC(=O)N1CCC(=C2c3ccc(Cl)cc3CCc3cccnc32)CC1 , give the reported IC50.
Outgoing: > 30 µM

Incoming: For the molecule shown here, N[C@H](C(=O)O)[C@H](OCc1cccc(NC(=O)c2ccc(C(F)(F)F)cc2)c1)C(=O)O , give the reported IC50.
Outgoing: 0.0088 µM
